The origin of these recorded values is the METLIN SMRT retention time set (Domingo-Almenara et al. 2019).

test: gradient 5% acetonitrile 3 min, to 50% in 2 min, to 85% in 15 min, held 3 min, 100 µL/min; details: column: Zorbax Extend-C18 2.1 x 50 mm; eluents: water / acetonitrile, 0.1% formic acid
Can you tell me RP-LC retention time for the items I'm about to list?
Answers are plain numbers, in s.

Here is how some molecules turned out for RP-LC retention time.
Input: Quick one: RP-LC retention time for O=C(CCNc1c(-c2ccc(F)cc2)nc2cnccn12)NCC1CC1 ?
Output: 647

Input: Let us now turn to CC(C)(C)C(=O)N[C@H](Cc1ccccc1)C(=O)NCc1cscn1
Output: 714

Input: Ok, now CCCNC(=O)C1CCN(S(C)(=O)=O)c2ccccc2O1 (centres undefined)
Output: 708

Input: How about COCC1CCN(C(=O)C2CCN(c3cnn(Cc4ccccc4)c(=O)c3)CC2)CC1 ?
Output: 727

Input: Please give the result for O=S(=O)(c1ccc(Cl)c(-c2nnc(-c3ccccc3)o2)c1)N1CCN(c2ccccn2)CC1 too.
Output: 802

Input: Now the molecule COc1ccc(S(=O)(=O)Cc2nc(-c3cccc(Br)c3)no2)cc1
Output: 1090

Answer for every listed entry: what is its RP-LC retention time? The entries follow.
1. CC(=O)c1ccc2c(c1)[C@H](NC(=O)c1ccc(F)c(Cl)c1)[C@H](O)C(C)(C)O2
2. Cc1cccc(-c2noc(-c3ccc(N4CCN(c5ncccn5)CC4)nc3)n2)c1
3. COC(=O)c1c(-c2ccc(Cl)cc2)noc1N1CCN(c2ccccn2)CC1

Output:
1: 944; 2: 1310; 3: 1000
